Listed molecules paired with reported EC50
# System: Streptococcus
# test: Group A Streptococcus viability loss, dose response, counter-screen for streptokinase expression inhibitor project, luminescence, BacTiterGlo (AID 1915);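 also: potency for reduction of bacterial viability or growth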
# Format: functional, organism-based
Calls of active or inactive are those of the source. Rule as the data show it: actives have a measured EC50 and inactives only a lower limit.

molecule	EC50
Fc1cccc2sc(Nc3nnc(-c4ccccc4)o3)nc12	6.97 µM (active)
Oc1cc(CSc2ccc(Cl)cc2)nc(-c2ccccn2)n1	6.82 µM (active)
Nc1nc(N)c2cc(Sc3ccc4ccccc4c3)ccc2n1	2.83 µM (active)
Cc1ccc(-c2cc([C@H]3[C@@H]4C=CCC[C@@]4(C)C(=O)N3Cc3ccccc3)ccc2F)cc1	18 µM (active)

Problem: Which EC50 is reported for this molecule? O=C(NC(c1ccc(Cl)cc1)c1cc(Cl)c2cccnc2c1O)c1cccnc1 (stereo not given)
Solution: 1.36 µM (active)

Problem: Field request: EC50 | item: CCCCC(=O)NC(c1ccc(Cl)cc1Cl)c1ccc2cccnc2c1O (stereo not given)
Solution: 2.12 µM (active)

Problem: Request the reported EC50 associated with CO/N=C(/C(=O)N[C@@H]1C(=O)N2C(C(=O)O)=CCS[C@H]12)c1cnc(N)s1
Solution: < 0.06 µM (active)

Problem: I have this molecule here, COC(=O)c1sc(N2C(=O)C(O)=C(C(=O)c3ccc(C)o3)C2c2ccc([N+](=O)[O-])cc2)nc1C (stereo not given) , and I need its recorded EC50.
Solution: 6.86 µM (active)

Problem: // lookup EC50 for CCOc1ccc(N(C)c2ccc(/C=C3/SC(=S)NC3=O)cc2)cc1
Solution: 20.7 µM (active)

Problem: Entry CCn1cnc2c1c(=O)n(CC(=O)Nc1cc(C)on1)c(=O)n2Cc1ccccc1 has what EC50?
Solution: > 150 µM (not active)
